tested on: Escherichia coli; experiment: Minimum inhibitory concentration of compound against Escherichia coli delta 120; format: functional
Assign MIC to each entry below.

// field: MIC; key: Cc1ccc(S(=O)(=O)N2N=Cc3cc(Br)sc3B2O)cc1 ; value = > 50 µg/mL

Lab note: Cc1ccc(S(=O)(=O)N2N=Cc3c(ccn3C)B2O)cc1 gave MIC of > 50 µg/mL

// MIC value for CCc1cc2c(s1)B(O)N(S(=O)(=O)c1ccc(C)cc1)N=C2 : 6.25 µg/mL

The compound CC(=O)Nc1ccc2c(c1)B(O)N(S(=O)(=O)c1ccc(C)cc1)N=C2 showed MIC equal to > 50 µg/mL

// recorded MIC for Cc1ccc(S(=O)(=O)N2N=Cc3cc(C)sc3B2O)c(Cl)c1 : 50 µg/mL

// sample Cc1ccc(S(=O)(=O)N2N=Cc3cc(N4CCCC4)ccc3B2O)cc1 , its MIC was > 50 µg/mL

Consider Cc1ccc(S(=O)(=O)N2N=Cc3oc(C)cc3B2O)cc1 . Its measured MIC is 12.5 µg/mL

The value of MIC measured for the compound CC(=O)Nc1ccc(S(=O)(=O)N2N=Cc3cc(Br)ccc3B2O)c(Cl)c1 turned out to be 50 µg/mL

# compound CCCS(=O)(=O)N1N=Cc2cc(Cl)ccc2B1O ; its MIC = 10 µg/mL

The compound Cc1ccc(S(=O)(=O)N2N=Cc3ccc(N(C)C)cc3B2O)cc1 showed MIC equal to > 50 µg/mL

For record Cc1ccc(S(=O)(=O)N2N=Cc3cc(C)ccc3B2O)cc1 the listed MIC is 12.5 µg/mL

Lab book: MIC of Cc1ccc(S(=O)(=O)N2N=Cc3c(C)ccc(C)c3B2O)cc1 noted as > 50 µg/mL

# MIC (compound: Cc1ccc(S(=O)(=O)N2N=Cc3c(Br)cccc3B2O)cc1 ) is > 50 µg/mL

The compound Cc1ccc(S(=O)(=O)N2N=Cc3cc(Br)ccc3B2O)cc1 showed MIC equal to 25 µg/mL

Recorded MIC (compound Cc1ccc(S(=O)(=O)N2N=Cc3c(ccc4ccccc34)B2O)cc1 ): > 50 µg/mL

MIC reported for this compound O=S(=O)(c1cc(Cl)c(Cl)cc1Cl)N1N=Cc2oc(Br)cc2B1O : > 50 µg/mL

Given item Cc1ccc(S(=O)(=O)N2N=Cc3cc(N(C)C)ccc3B2O)cc1 , the value recorded as its MIC is > 50 µg/mL

The compound identified as Cc1cc(C)c(S(=O)(=O)N2N=Cc3sc(Br)cc3B2O)c(C)c1 registered its MIC at > 50 µg/mL

The compound listed as CC1=NN(S(=O)(=O)c2ccc(C)cc2)B(O)c2ccccc21 has a reported MIC of > 50 µg/mL

// sample Cc1ccc(S(=O)(=O)N2N=Cc3cc(N)ccc3B2O)cc1 , its MIC was > 50 µg/mL

Sample Cc1ccc(S(=O)(=O)N2N=Cc3c(Cl)cccc3B2O)cc1 ; MIC observed: > 50 µg/mL

Lookup result for O=S(=O)(c1ccccc1)N1N=Cc2sc(Br)cc2B1O ; measured MIC: 3.12 µg/mL

The compound listed as CCc1cc2c(s1)C=NN(S(=O)(=O)c1ccccc1Cl)B2O shows MIC equal to 3.12 µg/mL

###

test system: Proteus mirabilis; assay: Minimum inhibitory concentration against Proteus mirabilis delta 89; type: functional
ATTRIBUTE MEASURED: log10 MIC (log10 of the value in µg/mL)
Heads up: the numbers are on a log10 scale; they represent MIC in µg/mL.

The recorded log10 MIC for entry Cc1ccc2c(c1)C=NN(S(=O)(=O)N(C)C)B2O equals 0.80

Lab book: log10 MIC of O=S(=O)(c1ccccc1)N1N=Cc2sc(Br)cc2B1O noted as 0.19

// log10 MIC value for Cc1ccc(S(=O)(=O)N2N=Cc3cc(Br)ccc3B2O)cc1 : 0.19

Record Cc1cc(C)c(S(=O)(=O)N2N=Cc3sc(Br)cc3B2O)c(C)c1 , field log10 MIC: 0.40

Value of log10 MIC reported for the compound Cc1cc2c(s1)B(O)N(S(=O)(=O)CC(C)C)N=C2 is 0.19

Note to self: log10 MIC recorded for Cc1cc2c(s1)C=NN(S(=O)(=O)c1ccccc1Cl)B2O was 0.19

What the record says about CCCS(=O)(=O)N1N=Cc2sc(C)cc2B1O : log10 MIC is -0.11

Value of measured log10 MIC for the entry Cc1ccc(S(=O)(=O)N2N=Cc3sc(Br)cc3B2O)c(Cl)c1 : 0.49

Measured log10 MIC of CCS(=O)(=O)N1N=Cc2sc(Br)cc2B1O : 0.80

# compound Cc1ccc2c(c1)C=NN(S(=O)(=O)c1ccc(N)cc1Cl)B2O ; its log10 MIC = -0.41

Form field log10 MIC, entry Cc1ccc2c(c1)C=NN(S(C)(=O)=O)B2O : 1.40

Recorded log10 MIC (compound Cc1ccc(S(=O)(=O)N2N=Cc3ccc(Br)cc3B2O)cc1 ): 1.10
